Reference for the values: patent US20240108702A1

Assay: Single-dose i.v. bolus PK study in mice
Format: in vivo, CD-1 mice
Conditions: both sexes, CD-1, mouse, plasma, iv, single 5 mg/kg i.v. bolus, estimate (SE)
Where a SMILES comes first, the peptide text is derived from it. Bridges are numbered along the chain shown (N, C = ends).
Quantity: Cmax (ng/mL)
Respond with the bare value in ng/mL.

What does the record list as Cmax for CC[C@H](C)[C@@H]1NC(=O)[C@@H]2CSSC[C@H](NC(=O)[C@H](CCCNC(=N)N)NC(=O)[C@@H]3CSSC[C@H](NC1=O)C(=O)N[C@@H]([C@@H](C)O)C(=O)N[C@@H](CCCNC(=N)N)C(=O)NCC(=O)N[C@@H](Cc1ccccc1)C(=O)N3)C(=O)N[C@@H](CC(C)C)C(=O)N[C@H]1CSSC[C@H](NC(=O)[C@H](C(C)C)NC(=O)CNC(=O)[C@H](CCCNC(=N)N)NC(=O)[C@H](CCCNC(=N)N)NC1=O)C(=O)N[C@@H](CCCNC(=N)N)C(=O)N2 [Peptide 1] (cyclo(GFCRCLCRRGVCRCICTR); disulfide 3-16, 5-14, 7-12) ?
8920

* * *

Test: in vivo
Conditions: both, cynomolgus monkey, iv, 0.3 mg/kg, AUCτ, cynomolgus, 0.3 mg/kg i.v., Day 1, mean
Where a SMILES comes first, the peptide text is derived from it. Bridges are numbered along the chain shown (N, C = ends).
Quantity: AUC
Write down the value, and be sure its unit follows.

Which measured AUC value corresponds to CC[C@H](C)[C@@H]1NC(=O)[C@@H]2CSSC[C@H](NC(=O)[C@H](CCCNC(=N)N)NC(=O)[C@@H]3CSSC[C@H](NC1=O)C(=O)N[C@@H]([C@@H](C)O)C(=O)N[C@@H](CCCNC(=N)N)C(=O)NCC(=O)N[C@@H](Cc1ccccc1)C(=O)N3)C(=O)N[C@@H](CC(C)C)C(=O)N[C@H]1CSSC[C@H](NC(=O)[C@H](C(C)C)NC(=O)CNC(=O)[C@H](CCCNC(=N)N)NC(=O)[C@H](CCCNC(=N)N)NC1=O)C(=O)N[C@@H](CCCNC(=N)N)C(=O)N2 [Peptide 1] (cyclo(GFCRCLCRRGVCRCICTR); disulfide 3-16, 5-14, 7-12) ?
591 ng·h/mL

* * *

Assay: in vivo
Conditions: both, Sprague-Dawley, rat, iv, 5 mg/kg/day
Where a SMILES comes first, the peptide text is derived from it. Bridges are numbered along the chain shown (N, C = ends).
Quantity: AUC (ng·h/mL)
// return numeric value only (unit: ng·h/mL, not printed)

Dear colleague, I am looking for the recorded AUC of the following compound: CC[C@H](C)[C@@H]1NC(=O)[C@@H]2CSSC[C@H](NC(=O)[C@H](CCCNC(=N)N)NC(=O)[C@@H]3CSSC[C@H](NC1=O)C(=O)N[C@@H]([C@@H](C)O)C(=O)N[C@@H](CCCNC(=N)N)C(=O)NCC(=O)N[C@@H](Cc1ccccc1)C(=O)N3)C(=O)N[C@@H](CC(C)C)C(=O)N[C@H]1CSSC[C@H](NC(=O)[C@H](C(C)C)NC(=O)CNC(=O)[C@H](CCCNC(=N)N)NC(=O)[C@H](CCCNC(=N)N)NC1=O)C(=O)N[C@@H](CCCNC(=N)N)C(=O)N2 [Peptide 1] (cyclo(GFCRCLCRRGVCRCICTR); disulfide 3-16, 5-14, 7-12)
12500

* * *

Assay: in vivo
Details: both, cynomolgus monkey, iv, 15 mg/kg/day, Vss, cynomolgus, 15 mg/kg/day i.v., Day 10, mean
Where a SMILES comes first, the peptide text is derived from it. Bridges are numbered along the chain shown (N, C = ends).
Quantity: Vd (L/kg)
Give your result in L/kg as a bare value.

Report Vd for CC[C@H](C)[C@@H]1NC(=O)[C@@H]2CSSC[C@H](NC(=O)[C@H](CCCNC(=N)N)NC(=O)[C@@H]3CSSC[C@H](NC1=O)C(=O)N[C@@H]([C@@H](C)O)C(=O)N[C@@H](CCCNC(=N)N)C(=O)NCC(=O)N[C@@H](Cc1ccccc1)C(=O)N3)C(=O)N[C@@H](CC(C)C)C(=O)N[C@H]1CSSC[C@H](NC(=O)[C@H](C(C)C)NC(=O)CNC(=O)[C@H](CCCNC(=N)N)NC(=O)[C@H](CCCNC(=N)N)NC1=O)C(=O)N[C@@H](CCCNC(=N)N)C(=O)N2 [Peptide 1] (cyclo(GFCRCLCRRGVCRCICTR); disulfide 3-16, 5-14, 7-12) please.
1.14

* * *

Assay: in vivo
Conditions: both, cynomolgus monkey, iv, 5 mg/kg/day, Cmax, cynomolgus, 5 mg/kg/day i.v., Day 10, mean
Where a SMILES comes first, the peptide text is derived from it. Bridges are numbered along the chain shown (N, C = ends).
Quantity: Cmax (ng/mL)
Your answer should be a plain number; it is taken to be in ng/mL.

Any idea what its Cmax is? The compound is CC[C@H](C)[C@@H]1NC(=O)[C@@H]2CSSC[C@H](NC(=O)[C@H](CCCNC(=N)N)NC(=O)[C@@H]3CSSC[C@H](NC1=O)C(=O)N[C@@H]([C@@H](C)O)C(=O)N[C@@H](CCCNC(=N)N)C(=O)NCC(=O)N[C@@H](Cc1ccccc1)C(=O)N3)C(=O)N[C@@H](CC(C)C)C(=O)N[C@H]1CSSC[C@H](NC(=O)[C@H](C(C)C)NC(=O)CNC(=O)[C@H](CCCNC(=N)N)NC(=O)[C@H](CCCNC(=N)N)NC1=O)C(=O)N[C@@H](CCCNC(=N)N)C(=O)N2 [Peptide 1] (cyclo(GFCRCLCRRGVCRCICTR); disulfide 3-16, 5-14, 7-12)
11700

* * *

Experiment: in vivo
Settings: both, cynomolgus monkey, iv, 15 mg/kg/day, CL, cynomolgus, 15 mg/kg/day i.v., Day 4, mean
Where a SMILES comes first, the peptide text is derived from it. Bridges are numbered along the chain shown (N, C = ends).
Quantity: clearance (mL/min/kg)
The reply should be a number in mL/min/kg, with the unit left off.

I would be grateful if you could share the reported clearance for CC[C@H](C)[C@@H]1NC(=O)[C@@H]2CSSC[C@H](NC(=O)[C@H](CCCNC(=N)N)NC(=O)[C@@H]3CSSC[C@H](NC1=O)C(=O)N[C@@H]([C@@H](C)O)C(=O)N[C@@H](CCCNC(=N)N)C(=O)NCC(=O)N[C@@H](Cc1ccccc1)C(=O)N3)C(=O)N[C@@H](CC(C)C)C(=O)N[C@H]1CSSC[C@H](NC(=O)[C@H](C(C)C)NC(=O)CNC(=O)[C@H](CCCNC(=N)N)NC(=O)[C@H](CCCNC(=N)N)NC1=O)C(=O)N[C@@H](CCCNC(=N)N)C(=O)N2 [Peptide 1] (cyclo(GFCRCLCRRGVCRCICTR); disulfide 3-16, 5-14, 7-12) .
1.78

* * *

Experiment: in vivo
Settings: both, Sprague-Dawley, rat, iv, 10 mg/kg
Where a SMILES comes first, the peptide text is derived from it. Bridges are numbered along the chain shown (N, C = ends).
Quantity: AUC(0-inf) (ng·h/mL)
Write down the numeric answer in ng·h/mL and omit the unit.

For the molecule shown here, CC[C@H](C)[C@@H]1NC(=O)[C@@H]2CSSC[C@H](NC(=O)[C@H](CCCNC(=N)N)NC(=O)[C@@H]3CSSC[C@H](NC1=O)C(=O)N[C@@H]([C@@H](C)O)C(=O)N[C@@H](CCCNC(=N)N)C(=O)NCC(=O)N[C@@H](Cc1ccccc1)C(=O)N3)C(=O)N[C@@H](CC(C)C)C(=O)N[C@H]1CSSC[C@H](NC(=O)[C@H](C(C)C)NC(=O)CNC(=O)[C@H](CCCNC(=N)N)NC(=O)[C@H](CCCNC(=N)N)NC1=O)C(=O)N[C@@H](CCCNC(=N)N)C(=O)N2 [Peptide 1] (cyclo(GFCRCLCRRGVCRCICTR); disulfide 3-16, 5-14, 7-12) , give the reported AUC(0-inf).
42100

* * *

Test: in vivo
Conditions: both, cynomolgus monkey, iv
Where a SMILES comes first, the peptide text is derived from it. Bridges are numbered along the chain shown (N, C = ends).
Quantity: NOAEL at 10 days (mg/kg/day)
Answer with a number only, understood to be in mg/kg/day.

Can you share its NOAEL at 10 days? I mean this molecule: CC[C@H](C)[C@@H]1NC(=O)[C@@H]2CSSC[C@H](NC(=O)[C@H](CCCNC(=N)N)NC(=O)[C@@H]3CSSC[C@H](NC1=O)C(=O)N[C@@H]([C@@H](C)O)C(=O)N[C@@H](CCCNC(=N)N)C(=O)NCC(=O)N[C@@H](Cc1ccccc1)C(=O)N3)C(=O)N[C@@H](CC(C)C)C(=O)N[C@H]1CSSC[C@H](NC(=O)[C@H](C(C)C)NC(=O)CNC(=O)[C@H](CCCNC(=N)N)NC(=O)[C@H](CCCNC(=N)N)NC1=O)C(=O)N[C@@H](CCCNC(=N)N)C(=O)N2 [Peptide 1] (cyclo(GFCRCLCRRGVCRCICTR); disulfide 3-16, 5-14, 7-12)
15
